- testDetails: Phase I DDI study with itraconazole: plasma pharmacokinetics of BI 425809
- Type: in vivo, human (healthy male volunteers)
- experimentalParameters: male, human, plasma, po, 25 mg
testReadout: AUC(0-t) (µM·h)
Answer in µM·h, number only, no unit symbol.

Q) # input molecule: C[C@@H](Oc1ccc(S(C)(=O)=O)cc1C(=O)N1C[C@@H]2C[C@]2(c2cc(C(F)(F)F)on2)C1)C(F)(F)F ; wanted: its AUC(0-t)
A) 10.2

---

- testDetails: Phase I DDI study with rifampicin: plasma pharmacokinetics of BI 425809
- Assay type: in vivo, human (healthy male volunteers)
- experimentalParameters: male, human, plasma, po, 25 mg
testReadout: AUC(0-t) (µM·h)
Report only the number, with the unit µM·h understood.

Q) Requested field: AUC(0-t). Item: C[C@@H](Oc1ccc(S(C)(=O)=O)cc1C(=O)N1C[C@@H]2C[C@]2(c2cc(C(F)(F)F)on2)C1)C(F)(F)F
A) 8.22

---

- testDetails: Phase I DDI study with rifampicin: plasma pharmacokinetics of BI 425809
- Format: in vivo, human (healthy male volunteers)
- experimentalParameters: read-out: Cmax, adjusted gMean; BI 425809 alone (R), inferential analysis
testReadout: Cmax
Answer with the value and then the unit.

Q) Report Cmax for C[C@@H](Oc1ccc(S(C)(=O)=O)cc1C(=O)N1C[C@@H]2C[C@]2(c2cc(C(F)(F)F)on2)C1)C(F)(F)F please.
A) 218 nM

---

- testDetails: Phase I DDI study with rifampicin: plasma pharmacokinetics of BI 425809
- Format: in vivo, human (healthy male volunteers)
- experimentalParameters: male, human, plasma, oral, AUC0-∞, adjusted gMean, BI 425809 + rifampicin (T), inferential analysis
testReadout: AUC(0-inf) (µM·h)
Use µM·h as the unit, but write only the number.

Q) Give the measured AUC(0-inf) of C[C@@H](Oc1ccc(S(C)(=O)=O)cc1C(=O)N1C[C@@H]2C[C@]2(c2cc(C(F)(F)F)on2)C1)C(F)(F)F .
A) 0.846

---

- testDetails: Phase I DDI study with rifampicin: plasma pharmacokinetics of BI 425809
- Type: in vivo, human (healthy male volunteers)
- experimentalParameters: male, human, plasma, oral, 25 mg
testReadout: AUC(0-t) (µM·h)
Record the value in µM·h, omitting the unit from your answer.

Q) Using the record for C[C@@H](Oc1ccc(S(C)(=O)=O)cc1C(=O)N1C[C@@H]2C[C@]2(c2cc(C(F)(F)F)on2)C1)C(F)(F)F [BI 425809] , report its AUC(0-t).
A) 8.22

---

- testDetails: Phase I DDI study with itraconazole: plasma pharmacokinetics of BI 425809
- Format: in vivo, human (healthy male volunteers)
- experimentalParameters: male, human, plasma, oral, 25 mg, AUC0-∞, gMean, BI 425809 25 mg alone, N = 16
testReadout: AUC(0-inf) (µM·h)
Your answer should be a plain number; it is taken to be in µM·h.

Q) Given the entry C[C@@H](Oc1ccc(S(C)(=O)=O)cc1C(=O)N1C[C@@H]2C[C@]2(c2cc(C(F)(F)F)on2)C1)C(F)(F)F [BI 425809] , report its measured AUC(0-inf).
A) 11.1

---

- testDetails: Phase I DDI study with rifampicin: plasma pharmacokinetics of BI 425809
- Format: in vivo, human (healthy male volunteers)
- experimentalParameters: male, human, plasma, oral, AUC0-∞, gMean, BI 425809 25 mg + rifampicin, N = 15
testReadout: AUC(0-inf) (µM·h)
Reply with just the number (in µM·h).

Q) // returns reported AUC(0-inf) for input C[C@@H](Oc1ccc(S(C)(=O)=O)cc1C(=O)N1C[C@@H]2C[C@]2(c2cc(C(F)(F)F)on2)C1)C(F)(F)F
A) 0.837
